test system: Mouse peritoneal macrophages; test: Mouse macrophage assay (zymosan-stimulated arachidonic acid metabolites, Leukotriene C4); assay type: cell-based; settings: mouse peritoneal macrophages, zymosan, read-out: Macrophage IC50
# IC50 annotations

structureSmilesString: Clc1ccc2c(c1)Sc1cc(Cl)ccc1N2
IC50: 0.01 to 0.1 µg/mL

structureSmilesString: O=[N+]([O-])c1ccc2c(c1)Sc1cc([N+](=O)[O-])ccc1N2
IC50: 0.0016 to 0.008 µg/mL

structureSmilesString: Clc1cccc2c1Sc1ccccc1N2
IC50: 0.01 to 0.1 µg/mL

structureSmilesString: CC(=O)Oc1ccc2c(c1)Sc1ccccc1N2
IC50: 0.01 to 0.1 µg/mL

structureSmilesString: Oc1ccc2c(c1)Sc1ccccc1N2
IC50: 0.1 to 1 µg/mL
